Assay: Solubility of the compound at pH 6.8
Type: physicochemical
Conditions: buffer
observation_type: solubility

Challenge: Given the compound CN(C)CCn1cc2c3c(cccc31)C1=C[C@@H](C(=O)N3CCCC3)CN(C(=O)Nc3ccccc3)[C@@H]1C2 , what is its reported solubility?
Response given: > 1000 µM

---

Target: C-X-C chemokine receptor type 3 (Homo sapiens, UniProt P49682)
Sequence (P49682 whole entry): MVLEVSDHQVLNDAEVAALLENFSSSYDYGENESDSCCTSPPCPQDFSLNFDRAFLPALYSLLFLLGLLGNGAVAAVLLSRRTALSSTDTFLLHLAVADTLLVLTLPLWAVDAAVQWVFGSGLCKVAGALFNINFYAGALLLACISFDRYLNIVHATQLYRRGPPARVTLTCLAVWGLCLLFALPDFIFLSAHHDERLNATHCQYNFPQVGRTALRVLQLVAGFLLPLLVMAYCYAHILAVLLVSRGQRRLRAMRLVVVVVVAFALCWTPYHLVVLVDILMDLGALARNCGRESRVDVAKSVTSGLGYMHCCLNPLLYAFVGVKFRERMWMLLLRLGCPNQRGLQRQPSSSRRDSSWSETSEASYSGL
Assay: Displacement of radiolabeled CXCL11 from human CXCR3 expressed in CHO cells by scintillation proximity assay
Format: cell-based
Quick rule for you: IC50 under 20 nM gets Satisfied, anything else gets Not satisfied.

Study these solved cases before continuing.
INSERT INTO results (smiles_record, discrete_label) VALUES
  ('O=C([C@@H]1C=C2c3cccc4[nH]cc(c34)C[C@H]2N(C(=O)Nc2ccccc2)C1)N1CCOCC1', 'Not satisfied'),
  ('O=C([C@@H]1C=C2c3cccc4c3c(cn4CCO)C[C@H]2N(C(=O)Nc2ccccc2)C1)N1CCCC1', 'Satisfied'),
  ('COc1ccc(NC(=O)N2C[C@H](C(=O)N3CCCC3)C=C3c4cccc5[nH]cc(c45)C[C@H]32)cc1', 'Not satisfied'),
  ('O=C([C@@H]1C=C2c3cccc4[nH]cc(c34)C[C@H]2N(C(=O)Nc2ccccc2)C1)N1C=CCCC1', 'Satisfied'),
  ('O=C([C@@H]1C=C2c3cccc4[nH]cc(c34)C[C@H]2N(C(=O)NC2CCCCCC2)C1)N1CCCC1', 'Not satisfied');

Shift focus to the following entry.
Challenge: Is IC50 of COCCN(CCOC)C(=O)[C@@H]1C=C2c3cccc4[nH]cc(c34)C[C@H]2N(C(=O)Nc2ccccc2)C1 strictly below 20 nM?
Response given: Not satisfied
